Some compounds, each annotated with its measured Time.
- Test system: Mus musculus
- measurement.notes: Induction of spontaneous locomotor activity in Swiss-Webster albino mouse assessed as time required to show activity at 27.2 umol/kg, ip measured every 10 mins in first hour followed by every hour for 5 hrs
- Assay type: functional
Number first, unit second: that is the form wanted.

Req: Fetch value of Time on Mus musculus for O=S(=O)(O)O.[2H]C(C)(N)Cc1ccccc1 (racemic) .
Resp: 100 min

Req: GET Time where system = Mus musculus and item = O=S(=O)(O)O.[2H]C(c1ccccc1)C(C)N (racemic)
Resp: 75 min

Req: Name the value of Time reported for O=S(=O)(O)O.[2H]c1c([2H])c([2H])c(C([2H])([2H])C(C)N)c([2H])c1[2H] (racemic) when tested on Mus musculus.
Resp: 80 min

Req: Please report Time with Mus musculus for item O=S(=O)(O)O.[2H]C([2H])([2H])C([2H])(N)C([2H])([2H])c1ccccc1 (racemic) .
Resp: 100 min

Req: Please report the measured Time for O=S(=O)(O)O.[2H]C(C)(N)C([2H])([2H])c1ccccc1 (racemic) tested on Mus musculus.
Resp: 105 min

* * *

- measurement.notes: Acute toxicity in ip dosed Swiss-Webster mouse measured for 24 hrs
- Format: organism-based
- details: in vivo
measured.property: LD50 at 24 h (mg/kg)
Give your result in mg/kg as a bare value.

Req: For the compound O=S(=O)(O)O.[2H]c1c([2H])c([2H])c(C([2H])([2H])C(C)N)c([2H])c1[2H] (racemic) , report LD50 at 24 h.
Resp: 140

Req: Give the measured LD50 at 24 h for C[C@H](N)Cc1ccccc1.C[C@H](N)Cc1ccccc1.O=S(=O)(O)O [DEXTROAMPHETAMINE SULFATE]
Resp: 123

Req: Let me know recorded LD50 at 24 h for O=S(=O)(O)O.[2H]C([2H])([2H])C([2H])(N)C([2H])([2H])c1ccccc1 (racemic) , thanks.
Resp: 143

Req: Give the measured LD50 at 24 h for O=S(=O)(O)O.[2H]c1c([2H])c([2H])c(C([2H])([2H])C([2H])(N)C([2H])([2H])[2H])c([2H])c1[2H] (racemic)
Resp: 149

* * *

- measurement.notes: Potency ratio of compound LD50 to protioamphetamine LD50 for ip dosed Swiss-Webster mouse
- Type: ADME, organism-based
- details: in vivo
// reported selectivity ratio per item

Req: Give selectivity ratio for O=S(=O)(O)O.[2H]C([2H])([2H])C([2H])(N)C([2H])([2H])c1ccccc1 (racemic)
Resp: 1.16

Req: Identify measured selectivity ratio corresponding to O=S(=O)(O)O.[2H]c1c([2H])c([2H])c(C([2H])([2H])C([2H])(N)C([2H])([2H])[2H])c([2H])c1[2H] (racemic)
Resp: 1.2

Req: Find the measured selectivity ratio of O=S(=O)(O)O.[2H]c1c([2H])c([2H])c(C([2H])([2H])C(C)N)c([2H])c1[2H] (racemic) and report it.
Resp: 1.13

* * *

- System: Mus musculus
- measurement.notes: Induction of spontaneous locomotor activity in Swiss-Webster albino mouse assessed as total activity AUC at 27.2 umol/kg, ip
- Format: functional, organism-based
- details: tested as the 2H-labelled form
Entries and their measured AUC follow.
Dear colleague, please return just the value in cm2, with no unit written.

Example entries and their recorded answers appear below.
>  <molecule>
CC(N)Cc1ccccc1 (racemic; 6)

>  <unit.info>
cm2

>  <experimental.value>
374

$$$$
>  <molecule>
CC(N)Cc1ccccc1 (racemic; 2)

>  <unit.info>
cm2

>  <experimental.value>
349

$$$$
>  <molecule>
CC(N)Cc1ccccc1 (racemic; 4)

>  <unit.info>
cm2

>  <experimental.value>
370

$$$$

Req: Report measured AUC; entry is CC(N)Cc1ccccc1 (racemic; 5)
Resp: 355

Req: Tell me its AUC given CC(N)Cc1ccccc1 (racemic; 3) as the entry.
Resp: 367
